measured.on: human mGlu2 receptor (Homo sapiens, UniProt Q14416)
Construct: expressed in transfected cells; host or cells: CHO cells
Sequence (Q14416 19-872): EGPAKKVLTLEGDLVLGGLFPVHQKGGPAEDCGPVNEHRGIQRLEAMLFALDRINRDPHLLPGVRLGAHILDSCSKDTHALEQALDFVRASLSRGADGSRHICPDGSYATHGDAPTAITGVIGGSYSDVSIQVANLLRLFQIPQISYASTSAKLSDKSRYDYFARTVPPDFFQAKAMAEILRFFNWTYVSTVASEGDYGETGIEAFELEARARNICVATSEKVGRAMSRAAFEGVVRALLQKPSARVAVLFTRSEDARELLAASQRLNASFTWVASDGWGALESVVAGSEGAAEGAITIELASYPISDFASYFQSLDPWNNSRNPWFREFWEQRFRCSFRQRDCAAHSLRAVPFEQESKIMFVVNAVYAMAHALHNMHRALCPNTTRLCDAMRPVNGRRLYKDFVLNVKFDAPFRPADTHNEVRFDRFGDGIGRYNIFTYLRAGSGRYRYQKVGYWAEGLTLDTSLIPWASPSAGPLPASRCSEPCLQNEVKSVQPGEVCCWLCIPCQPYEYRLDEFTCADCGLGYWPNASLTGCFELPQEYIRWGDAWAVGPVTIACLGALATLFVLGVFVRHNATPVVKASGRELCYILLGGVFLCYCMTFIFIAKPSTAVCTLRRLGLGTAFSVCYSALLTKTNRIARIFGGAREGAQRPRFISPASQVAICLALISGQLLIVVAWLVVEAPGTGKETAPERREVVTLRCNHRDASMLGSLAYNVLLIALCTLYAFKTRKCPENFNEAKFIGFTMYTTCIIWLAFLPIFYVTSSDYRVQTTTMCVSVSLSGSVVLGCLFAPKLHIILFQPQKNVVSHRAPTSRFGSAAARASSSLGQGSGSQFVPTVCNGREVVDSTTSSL
measurement.notes: [35S]GTPγS binding assay (mGluR2 negative allosteric modulation, glutamate ~EC80 60 μM)
Assay type: biochemical
measurement.conditions: membranes from CHO cells transfected with human mGlu2 receptor; glutamate ~EC80 (60 μM); pIC50 = −log IC50 (M); read-out: GTPγS-hmGluR2 anGT pIC50 (converted)
observed.property: IC50 (M)
Record the value in M, omitting the unit from your answer.

Please fill in: IC50 reported for Cc1ccncc1C(=O)Nc1cnn2c1C(=O)N(c1ccc(C(F)(F)F)c(C)c1)C[C@@H]2C [Co. No. 119] = 8.32e-09

Please fill in: IC50 reported for C[C@H]1CN(c2ccc(C(F)(F)F)c(F)c2)C(=O)c2c(NC(=O)c3cnccn3)cnn21 [Co. No. 127] = 6.61e-09

Please fill in: IC50 reported for COc1ccc(C(=O)Nc2cnn3c2C(=O)N(c2ccc(C(F)(F)F)cc2)C[C@@H]3C)cc1F [Co. No. 23] = 5.5e-09

Please fill in: IC50 reported for COc1cncc(C(=O)Nc2cnn3c2C(=O)N(c2ccc(C(F)(F)F)cc2)C[C@@H]3C)c1 [Co. No. 32] = 7.41e-09

====

measured.on: human mGlu2 receptor (Homo sapiens, UniProt Q14416)
Construct: expressed in transfected cells; host or cells: CHO cells
measurement.notes: [35S]GTPγS binding assay (mGluR2 negative allosteric modulation, glutamate ~EC80 60 μM)
Format: biochemical
measurement.conditions: maximal % inhibition relative to the control glutamate response (EC80 glutamate)
Answer each item with its documented GTPγS-hmGluR2 anGT Emax.
Record the value in %, omitting the unit from your answer.

Please fill in: GTPγS-hmGluR2 anGT Emax reported for C[C@H]1CN(c2ccc(C(F)F)c(Cl)c2)C(=O)c2c(NC(=O)c3ccc(N)nc3)cnn21 [Co. No. 40] = 113

Please fill in: GTPγS-hmGluR2 anGT Emax reported for COc1cccc(C(=O)Nc2cnn3c2C(=O)N(c2ccc(C(F)(F)F)cc2)C[C@@H]3C)n1 [Co. No. 20] = 103

Please fill in: GTPγS-hmGluR2 anGT Emax reported for COCC1CN(c2ccc(C(F)(F)F)cc2)C(=O)c2c(NC(=O)c3ccc(N)nc3)cnn21 (single isomer, unassigned) [Co. No. 95] = 114

Please fill in: GTPγS-hmGluR2 anGT Emax reported for Cc1nccc(C(=O)Nc2cnn3c2C(=O)N(c2ccc(C(F)(F)F)cc2)C[C@@H]3C)c1C [Co. No. 156] = 113

Please fill in: GTPγS-hmGluR2 anGT Emax reported for COCC1CN(c2ccc(C(F)(F)F)cc2)C(=O)c2c(NC(=O)c3ccccc3F)cnn21 (single isomer, unassigned) [Co. No. 62b] = 66

Please fill in: GTPγS-hmGluR2 anGT Emax reported for COCC1CN(c2ccc(C(F)(F)F)cc2)C(=O)c2c(NC(=O)c3ccccc3F)cnn21 (single isomer, unassigned) [Co. No. 62a] = 111

Please fill in: GTPγS-hmGluR2 anGT Emax reported for C[C@H]1CN(c2ccc(C(F)(F)F)c(F)c2)C(=O)c2c(NC(=O)c3cccnc3)cnn21 [Co. No. 126] = 110
